Target sequence: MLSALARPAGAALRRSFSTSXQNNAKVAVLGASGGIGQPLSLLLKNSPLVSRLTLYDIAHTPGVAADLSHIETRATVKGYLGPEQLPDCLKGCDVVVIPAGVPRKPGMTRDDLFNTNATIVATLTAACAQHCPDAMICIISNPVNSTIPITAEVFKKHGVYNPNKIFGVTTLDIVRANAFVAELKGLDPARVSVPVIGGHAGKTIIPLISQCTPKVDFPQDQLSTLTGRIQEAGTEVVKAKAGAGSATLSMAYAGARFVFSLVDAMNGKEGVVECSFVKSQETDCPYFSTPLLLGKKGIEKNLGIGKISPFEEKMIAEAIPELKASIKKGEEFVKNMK
RESULT TYPE: pIC50
Field pIC50 (float): negative decimal logarithm of the concentration in molar.

Looking up "O=C(O)c1cnc2cc(OCCOc3ccc(Oc4ccccc4)cc3)ccc2c1O" , I see its pIC50 listed as 5.61

Looking up "O=C(O)c1cnc2cc(OCCOc3ccccc3)ccc2c1O" , I see its pIC50 listed as 4.22

Looking up "CC(=O)c1ccc2c(O)c(C(=O)O)cnc2c1" , I see its pIC50 listed as 3.04

Looking up "NC(=O)c1ccc2c(O)c(C(=O)O)cnc2c1" , I see its pIC50 listed as 3.13
